// provenance: paper PMC10461232

# Tested on: KB (RFC/PCFT/FRα) cells
# ASSAY PROCEDURE: Growth inhibition, KB nasopharyngeal carcinoma cells
# Format: cell-based, human
# ASSAY SETUP: Homo sapiens, KB, folate-free RPMI 1640, 2 nM leucovorin, mean (SE)
Consider the following molecules; for each one, report its IC50.
Enter the number, and then the unit.

Exam item: Which IC50 value belongs to Nc1nc2ccn(CCOc3ccc(C(=O)N[C@@H](CCC(=O)O)C(=O)O)cc3)c2c(=O)[nH]1 ?
Marked response: 11.2 nM

Exam item: Which IC50 value belongs to Nc1nc2ccn(CCCSc3ccc(C(=O)N[C@@H](CCC(=O)O)C(=O)O)cc3)c2c(=O)[nH]1 ?
Marked response: 31.5 nM

Exam item: Which IC50 value belongs to Nc1nc2ccn(CCCc3ccc(C(=O)N[C@@H](CCC(=O)O)C(=O)O)cc3)c2c(=O)[nH]1 ?
Marked response: 6.73 nM

Exam item: Which IC50 value belongs to Nc1nc2ccn(CCCc3ccc(C(=O)N[C@@H](CCC(=O)O)C(=O)O)c(F)c3)c2c(=O)[nH]1 ?
Marked response: 8.34 nM
